tested on: RAW264.7; assay: Antiinflammatory activity against mouse RAW264.7 cells assessed as inhibition of NO production at 50 uM relative to control; type: functional
Observation type: inhibition at 50 µM (%)
Answer format: numeric, % implied, no suffix.

Consider the reported inhibition at 50 µM for these molecules:
Oc1cccc(/C=C/c2cc(O)cc(O)c2)c1 = 22.8
COc1cc(CCc2cc(C(C)(C)C)cc(C(C)(C)C)c2)cc(OC)c1 = 18.2
COc1cc(/C=C/c2cccc(C(F)(F)F)c2)cc(OC)c1 = 14.1

For `C[C@@H]1C[C@H]2[C@@H]3CCC4=CC(=O)C=C[C@]4(C)[C@@]3(F)[C@@H](O)C[C@]2(C)[C@@]1(O)C(=O)CO` , what is its reported inhibition at 50 µM? 26.9

// repeat for `COc1cc(CCc2ccccc2)cc(OC)c1` and report 6.16

// repeat for `COc1cccc(/C=C/c2cc(OC)cc(OC)c2)c1` and report 18.2

// repeat for `COc1cc(CCc2cccnc2)cc(OC)c1` and report 13.8

// repeat for `COc1cc(/C=C/c2cccc(Cl)c2)cc(OC)c1` and report 7.82

// repeat for `COc1cc(/C=C/c2ccc(C(C)(C)C)cc2)cc(OC)c1` and report 14

// repeat for `Oc1cc(O)cc(CCc2cccnc2)c1` and report 12.2

// repeat for `COc1cc(/C=C/c2cccc([N+](=O)[O-])c2)cc(OC)c1` and report 14.9

// repeat for `COc1cc(/C=C/c2cccc(C#N)c2)cc(OC)c1` and report 11.4

// repeat for `COc1cc(/C=C/c2cccnc2)cc(OC)c1` and report 22.5

---

assay: Cytotoxicity against mouse RAW264.7 cells assessed as cell survival rate at 50 uM by MTT assay relative to control; format: toxicity, cell-based; conditions: read-out: Activity
Recorded measurements of viability at 50 µM, one per entry
Answer format: numeric, % implied, no suffix.

COc1cc(/C=C/c2cccc(C(F)(F)F)c2)cc(OC)c1 = 109

For `COc1cc(CCc2cccc(C#N)c2)cc(OC)c1` , what is its reported viability at 50 µM? 105

// repeat for COc1cc(O)cc(CCc2cccc(O)c2)c1 [BATATASIN III] and report 106

// repeat for `COc1cc(/C=C/c2cccnc2)cc(OC)c1` and report 97.7

// repeat for `Oc1cc(O)cc(CCc2cccnc2)c1` and report 98.9

// repeat for `COc1cc(CCc2cccc(C(F)(F)F)c2)cc(OC)c1` and report 103

---

Recorded measurements of IC50, one per entry
system: RAW264.7; experiment: Antiinflammatory activity against mouse RAW264.7 cells assessed as inhibition of NO release; format: functional, cell-based

Consider the reported IC50 for these compounds:
COc1cc(/C=C/c2cccc([N+](=O)[O-])c2)cc(OC)c1 = > 50 µM
COc1cc(/C=C/c2cccc(C#N)c2)cc(OC)c1 = > 50 µM
COc1cc(/C=C/c2cccc(Cl)c2)cc(OC)c1 = > 50 µM
COc1cc(CCc2cc(C(C)(C)C)cc(C(C)(C)C)c2)cc(OC)c1 = > 50 µM

For `Oc1cccc(/C=C/c2cc(O)cc(O)c2)c1` , what is its reported IC50? 54 µM

// repeat for `COc1cc(CCc2cccc(N)c2)cc(OC)c1` and report 55.4 µM

// repeat for `COc1cc(CCc2ccccc2)cc(OC)c1` and report > 50 µM

// repeat for `COc1cc(CCc2cccc(C)c2)cc(OC)c1` and report 58.3 µM

// repeat for `O=[N+]([O-])c1cccc(/C=C/c2cc(O)cc(O)c2)c1` and report 44.5 µM

// repeat for `Oc1cc(O)cc(CCc2cccnc2)c1` and report > 50 µM

---

test system: RAW264.7; test: Antiinflammatory activity against mouse RAW264.7 cells assessed as inhibition of NO production at 50 uM relative to control; format: functional
Assign class by inhibition at 50 µM: not lower than 20% means yes (1); lower than 20% means no (0).

Does the reported inhibition at 50 µM for `Oc1cccc(CCc2cc(O)cc(O)c2)c1` fall at or above the 20% mark? yes (1)

// repeat for `COc1cc(CCc2cccc(C#N)c2)cc(OC)c1` and report no (0)

// repeat for `O=[N+]([O-])c1cccc(/C=C/c2cc(O)cc(O)c2)c1` and report yes (1)

// repeat for Oc1cc(O)cc(CCc2ccccc2)c1 [DIHYDROPINOSYLVIN] and report no (0)

// repeat for `COc1cc(/C=C/c2cc(C(C)(C)C)cc(C(C)(C)C)c2)cc(OC)c1` and report no (0)

// repeat for `COc1cc(CCc2ccco2)cc(OC)c1` and report no (0)

// repeat for `COc1cc(CCc2ccc(C(C)(C)C)cc2)cc(OC)c1` and report no (0)

// repeat for `COc1cc(CCc2cccc(N)c2)cc(OC)c1` and report yes (1)

// repeat for `CC(C)(C)c1ccc(CCc2cc(O)cc(O)c2)cc1` and report yes (1)

// repeat for COc1cc(O)cc(CCc2cccc(O)c2)c1 [BATATASIN III] and report yes (1)

// repeat for `COc1cc(CCc2cccc(C)c2)cc(OC)c1` and report yes (1)

---

test: Cytotoxicity against mouse RAW264.7 cells assessed as cell survival rate at 50 uM by MTT assay relative to control; assay type: toxicity, cell-based; conditions: read-out: Activity
Recorded measurements of viability at 50 µM, one per entry
Answer format: numeric, % implied, no suffix.

COc1cc(CCc2cccc(N)c2)cc(OC)c1 = 104
COc1cc(/C=C/c2cccc([N+](=O)[O-])c2)cc(OC)c1 = 104
COc1cc(CCc2ccco2)cc(OC)c1 = 103

For `COc1cc(CCc2cccc(C)c2)cc(OC)c1` , what is its reported viability at 50 µM? 109

// repeat for `COc1cc(CCc2cc(C(C)(C)C)cc(C(C)(C)C)c2)cc(OC)c1` and report 114

// repeat for C[C@@H]1C[C@H]2[C@@H]3CCC4=CC(=O)C=C[C@]4(C)[C@@]3(F)[C@@H](O)C[C@]2(C)[C@@]1(O)C(=O)CO [DEXAMETHASONE] and report 107

// repeat for `CC(C)(C)c1ccc(CCc2cc(O)cc(O)c2)cc1` and report 106

// repeat for `COc1cc(CCc2ccc(C(C)(C)C)cc2)cc(OC)c1` and report 106

// repeat for `COc1cc(/C=C/c2cc(C(C)(C)C)cc(C(C)(C)C)c2)cc(OC)c1` and report 104

// repeat for `COc1cc(/C=C/c2cccc(C#N)c2)cc(OC)c1` and report 114

// repeat for `COc1cc(CCc2ccccc2)cc(OC)c1` and report 99.5

// repeat for `O=[N+]([O-])c1cccc(/C=C/c2cc(O)cc(O)c2)c1` and report 104

// repeat for `Oc1cccc(CCc2cc(O)cc(O)c2)c1` and report 110

---

assay: Cytotoxicity against mouse RAW264.7 cells assessed as cell survival rate at 20 uM by MTT assay relative to control; assay type: toxicity, cell-based; conditions: read-out: Activity
Observation type: viability at 20 µM (%)
Answer format: numeric, % implied, no suffix.

For `CC(C)(C)c1cc(CCc2cc(O)cc(O)c2)cc(C(C)(C)C)c1` , what is its reported viability at 20 µM? 99.1

---

Recorded measurements of viability at 50 µM, one per entry
test: Cytotoxicity against mouse RAW264.7 cells assessed as cell survival rate at 50 uM by MTT assay relative to control; format: toxicity, cell-based; details: read-out: Activity
Answer format: numeric, % implied, no suffix.

Consider the reported viability at 50 µM for these compounds:
Oc1cc(O)cc(CCc2ccccc2)c1 [DIHYDROPINOSYLVIN] = 102
Oc1cccc(/C=C/c2cc(O)cc(O)c2)c1 = 110
COc1cc(/C=C/c2ccc(C(C)(C)C)cc2)cc(OC)c1 = 99.3
COc1cc(/C=C/c2cccc(Cl)c2)cc(OC)c1 = 97.8
COc1cccc(/C=C/c2cc(OC)cc(OC)c2)c1 = 97.2

For `COc1cc(CCc2cccnc2)cc(OC)c1` , what is its reported viability at 50 µM? 97.8
